tested.target: mGluR4 (UniProt Q14833)
test.method.notes: mGluR4 potentiation assay (EC50 for potentiation at EC20 agonist; fluorometric plate reader, Ca2+ or thallium dye)
Format: cell-based
condition.details: potentiation of mGluR4; species of receptor not given
observed.property: EC50 (nM)

Some molecules with known EC50 results, for comparison:
- molecule: "CC(C)Cc1noc2cc(Nc3n[nH]c4cccnc34)ccc12"
  EC50 [nM]: 826
- molecule: "O=C(Cc1noc2cc(Nc3n[nH]c4cccnc34)ccc12)N1CCN(CC(F)(F)F)CC1"
  EC50 [nM]: 1870

[A] Cc1noc2ccc(Nc3n[nH]c4ncccc34)cc12
[B] CN(C(=O)Cc1noc2cc(Nc3n[nH]c4cccnc34)ccc12)c1cccnc1
[C] CCc1noc2cc(Nc3n[nH]c4ccccc34)ccc12
[D] CC(c1ccc2c(cnn2C)c1)c1noc2cc(Nc3n[nH]c4cccnc34)ccc12 (stereo not drawn)
Data request: Give the ascending ranking of the items by reported EC50. Put the labels in the requested order and list them out.
Data returned: A, D, B, C
(A: 297 nM, D: 645 nM, B: 1170 nM, C: 1940 nM)

###

tested.target: mGluR4 (UniProt Q14833)
test.method.notes: mGluR4 potentiation assay (EC50 for potentiation at EC20 agonist; fluorometric plate reader, Ca2+ or thallium dye)
condition.details: potentiation of mGluR4; species of receptor not given
pEC50: −log10 of the molar value.
observed.property: pEC50

Some compounds with known pEC50 results, for comparison:
- compound: "CCCC(C)c1noc2cc(Nc3n[nH]c4ncc(F)cc34)ccc12 (centres unmarked) [Example 96]"
  tested.target: "mGluR4 (UniProt Q14833)"
  pEC50: 6.38
- compound: "CCCCC(F)c1noc2cc(Nc3n[nH]c4cccnc34)ccc12 (centres unmarked) [Example 147]"
  tested.target: "mGluR4 (UniProt Q14833)"
  pEC50: 5.83
- compound: "FC(F)(F)CCc1noc2cc(Nc3n[nH]c4cccnc34)ccc12 [Example 109]"
  tested.target: "mGluR4 (UniProt Q14833)"
  pEC50: 6.38

[P] C[C@@H](NCc1noc2cc(Nc3n[nH]c4cccnc34)ccc12)C(C)(C)C [Example 79]
[Q] CCCCC(C)(F)c1noc2cc(Nc3n[nH]c4cccnc34)ccc12 (centres unmarked) [Example 134]
Data request: Which shows the larger pEC50 value: P or Q ? Lab note: record the label of whichever item you select.
Data returned: P
(P: 6.21, Q: 5.58)

[A] CC(NCC(C)(C)C)c1noc2cc(Nc3n[nH]c4cccnc34)ccc12 (centres unmarked) [Example 137]
[B] CCc1noc2cc(Nc3n[nH]c4cccnc34)ccc12 [Example 16]
Data request: Between item A and item B , which reported pEC50 is smaller? Lab note: record the label of whichever item you select.
Data returned: B

[P] CC(C)(C)Cc1noc2cc(Nc3n[nH]c4nccnc34)ccc12 [Example 14]
[Q] CCc1noc2cc(Nc3n[nH]c4ncccc34)ccc12 [Example 15]
Data request: Which shows the larger pEC50 value: P or Q ? Lab note: record the label of whichever item you select.
Data returned: P
(P: 6.21, Q: 5.68)

###

A collection of molecules and their measured EC50
tested.target: mGluR4 (UniProt Q14833)
test.method.notes: mGluR4 potentiation assay (EC50 for potentiation at EC20 agonist; fluorometric plate reader, Ca2+ or thallium dye)
condition.details: potentiation of mGluR4; species of receptor not given

Some molecules with known EC50 results, for comparison:
- molecule: "CC(C)(C)Cc1noc2cc(Nc3n[nH]c4ncc(F)cc34)cc(F)c12"
  EC50: "> 10 µM"
- molecule: "O=C(Cc1noc2cc(Nc3n[nH]c4ncccc34)ccc12)NC1CC(F)(F)C1"
  EC50: "> 10 µM"
- molecule: "O=C(Cc1noc2cc(Nc3n[nH]c4cccnc34)ccc12)NC1CC(F)(F)C1"
  EC50: "> 10 µM"
- molecule: "CC(C)(C)Cc1noc2c(F)c(Nc3n[nH]c4cccnc34)ccc12"
  EC50: "> 30 µM"
- molecule: "O=C(Cc1noc2cc(Nc3n[nH]c4cccnc34)ccc12)N1CCCC1c1ccccn1 (stereo not drawn)"
  EC50: "> 10 µM"

Data request: State its EC50: c1cc2oncc2cc1Nc1n[nH]c2c1CCCC2
Data returned: > 10 µM
